What %Inh was measured for each of the following?
- System: EPHA4
- reported.conditions: concentration: 1 μM,replicates: in singlicate; n = 1;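 also: KINOMEscan kinase panel screen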
Write it as a number; the unit % goes unstated.

Record lookup: for EPHA4, what %Inh belongs to C[C@@H](Oc1cc(-c2cnn(C3CCNCC3)c2)cnc1N)c1c(Cl)ccc(F)c1Cl ?
49

Again, but for Cc1occc1-c1nc(N)c(OC[C@@H](N)Cc2c[nH]c3ccccc23)cc1-c1cc2c(C)n[nH]c2cn1
14

Again, but for C[C@H]1Oc2cc(cnc2N)-c2c(nn(C)c2C#N)CN(C)C(=O)c2ccc(F)cc21
1

Again, but for CN(C)CCOc1ccc(-c2cc(-c3c[nH]nc3-c3ccccn3)ccn2)cc1
90

Again, but for Cl.Cl.NC[C@H](CC1CCCCC1)NC(=O)c1cc(Br)c(-c2ccnc3[nH]ccc23)s1
13

Again, but for CN(C)CC(O)COc1ccc(Nc2nccc(-c3cnn4nc(N5CCOCC5)ccc34)n2)cc1 (centres unmarked)
8

Again, but for CCn1c(-c2nonc2N)nc2c(C#CC(C)(C)O)nc(OCCN)cc21.Cl.Cl
15

Again, but for Cc1cc(C(=O)Nc2ccc(Oc3ccc4nc(NC(=O)C5CC5)cn4n3)cc2)nn1-c1ccccc1
48

====

- Test system: LTK
- reported.conditions: concentration: 1 μM,replicates: in singlicate; n = 1
reported.property: %Inh (%)
Write it as a number; the unit % goes unstated.

Which %Inh value belongs to Cl.Cl.Nc1nc(-c2ccc3c(N)n[nH]c3c2)cc(N2CCCC(NC(=O)c3ccccc3)C2)n1 (centres unmarked) ?
0

Again, but for CCN(CC)CCCCNc1ncc2cc(-c3c(Cl)cccc3Cl)c(NC(=O)NC(C)(C)C)nc2n1
29

Again, but for Cc1n[nH]c2ccc(-c3cc(OC[C@@H](N)Cc4ccccc4)cnc3-c3ccoc3)cc12.O=C(O)C(F)(F)F.O=C(O)C(F)(F)F
11

Again, but for CN(C)CCOc1ccc(-c2cc(-c3c[nH]nc3-c3ccccn3)ccn2)cc1
47

Again, but for CC(C)Nc1cc(-c2ccc3c(N)n[nH]c3c2)nc(N)n1
0

Again, but for C[C@@H]1CCN(C(=O)CC#N)C[C@@H]1N(C)c1ncnc2[nH]ccc12
0

Again, but for Nc1nc(Nc2ccccc2)cc(-c2ccc3c(N)n[nH]c3c2)n1
0

Again, but for COc1ccc(C[C@@H](CN)NC(=O)c2cc(Br)c(-c3ccnc4[nH]ccc34)s2)cc1.Cl.Cl
0

====

What %Inh was measured for each of the following?
- System: PLK2
- reported.conditions: concentration: 1 μM,replicates: in singlicate; n = 1
Write it as a number; the unit % goes unstated.

Which %Inh value belongs to Cl.Cl.NC[C@H](Cc1ccc(C(F)(F)F)cc1)NC(=O)c1cc(Br)c(-c2ccnc3[nH]ccc23)s1 ?
0

Again, but for Cc1cc(C(=O)Nc2ccc(Oc3ccc4nc(NC(=O)C5CC5)cn4n3)cc2)nn1-c1ccccc1
0

Again, but for Cl.Cl.Nc1nc(-c2ccc3c(N)n[nH]c3c2)cc(N2CCCC(NC(=O)c3ccccc3)C2)n1 (stereo not shown)
0

Again, but for Cc1occc1-c1nc(N)c(OC[C@@H](N)Cc2c[nH]c3ccccc23)cc1-c1cc2c(C)n[nH]c2cn1
65

Again, but for CCN(CC)CCCCNc1ncc2cc(-c3c(Cl)cccc3Cl)c(NC(=O)NC(C)(C)C)nc2n1
5

Again, but for CNC(=O)c1ccccc1Sc1ccc2c(/C=C/c3ccccn3)n[nH]c2c1
40

Again, but for Nc1nc(Nc2ccccc2)cc(-c2ccc3c(N)n[nH]c3c2)n1
0
